Each record here notes measured EC50 (read off the curve).
target_of_assay: T1, human PVRIG protein on the cell membrane surface (human, UniProt Q6DKI7 41-326)
T1 construct: Also used here for the natural PVRIG on NKG cells and human lymphocytes; also called 293T-human PVRIG cell line; PVRIG on NKG cell line
T1 sequence: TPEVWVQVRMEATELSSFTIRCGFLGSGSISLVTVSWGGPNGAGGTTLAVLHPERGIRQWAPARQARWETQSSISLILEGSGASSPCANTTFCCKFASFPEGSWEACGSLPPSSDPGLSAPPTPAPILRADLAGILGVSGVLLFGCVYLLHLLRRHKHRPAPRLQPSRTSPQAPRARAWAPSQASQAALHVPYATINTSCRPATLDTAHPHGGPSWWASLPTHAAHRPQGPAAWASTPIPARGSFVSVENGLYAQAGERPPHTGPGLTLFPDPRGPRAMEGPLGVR
assay_remarks: flow cytometry on 293T-human PVRIG cells, AF647 goat anti-mouse IgG, percent positive cells

Some binders with known EC50 (read off the curve) results, for comparison:
INSERT INTO results (binder, measurement_name, result_value) VALUES
  ('Antibody 4 (antibody, V domains shown, Murine monoclonal antibody from hybridoma ascites; Used AF647-labelled in several flow cytometry assays; also called murine antibody (Antibody 4); murine Antibody 4) VH: QVQLQQSGAELVKPGASVKISCKATGYTFSSFSIEWVKQRPGHGLAWIGEILPGSNSTNYNEKFKGKATFTADTSSNTAYMQLSSLTSEDSAVYYCSSYWFAYWGQGTLVTVSA VL: DIVMTQSPSSLSVSAGEKVTMSCKSSQSLLNSGNQKNYLAWYQQKPGQPPKLLIYGASTRESGVPDRFTGSGSGTDFTLTISSVQAEDLAVYYCQNAHSYPPTFAAGTKLELK', 'EC50 (read off the curve)', '~0.01 µg/mL'),
  ('Antibody 2 (antibody, V domains shown, Murine monoclonal antibody from hybridoma ascites; also called murine antibody Antibody 2) VH: QVQLQQSGAELTKPGASVKISCKATGYTFSTFAIDWIKQRPGHGLAWIGEILPGGNNTNYNEKFKGKATFTADTSSNTAYMHLSSLTSEDSAVYYCSTYWFAYWGQGTLVTVSA VL: DIVMTQSPSSLSVSAGEKVTMSCKSSQSLLNSGNQKNYLAWYQQKPGQPPKLLMYGASTRESGVPDRFTGSGSGTDFTLTISSVQAEDLAVYYCQNAHSYPPAFGAGTKLELK', 'EC50 (read off the curve)', '~0.03 µg/mL'),
  ('Antibody 3 (antibody, V domains shown, Murine monoclonal antibody from hybridoma ascites; also called murine antibody Antibody 3) VH: EVQLQQSGPELVKPGASMKISCKASGYSFTAYTMNWVKQSHGKNLEWIGLINPYNGGTSYNQKFKGKATLTGDKSSSTAYMELLSVTSEDSAVYFCAREGNYYGSRGDFDYWGQGTTLTVSS VL: DILLTQSPAILSVSPGERVSFSCRASQTIVTNILWYQQRTNGSPRLLIRYASESISGIPSRFSGSGSGTDFTLSINSVESEDIAHYYCQQSHSWPFTFGSGTKLEIK', 'EC50 (read off the curve)', '~0.1 µg/mL');

We now examine a further binder.
Request: Fill blank: measured EC50 (read off the curve) of the binder Antibody 1 (antibody, V domains shown, Murine monoclonal antibody from hybridoma ascites, purified on Protein G; also called murine antibody Antibody 1) VH: QVQLQQSGAELMKPGASVKISCKATGYTFSTFAIDWIKQRPGPGLAWIGEILPGINNTNYNEKFKGKATFTADTSSNTAYMHLSSLTSEDSAVYYCSTYWFAYWGQGTLVTVSA VL: DIVMTQSPSSLSVSAGEKVTMTCKSSQSLLNSGNQKNYLAWYQQKPGQPPKLLMYGASTRESGVPDRFTGSGSGTDFTLTISSVQAEDLAVYYCQNAHSYPPTFGAGTKLELK is ____.
Response: ~0.02 µg/mL
